These data points were gathered from patent US10517889B2.

tested on: human SMAD7 mRNA; test: Antisense inhibition of human SMAD7 mRNA expression in Hep3B cells by 3-10-3 cEt gapmers, 10,000 nM, electroporation (Example 2); format: cell-based; conditions: Hep3B cells, electroporation with 10,000 nM antisense oligonucleotide, approximately 24 hours, primer probe set RTS5062, relative to untreated control cells
Strand notation (5' to 3'): a small letter for the sugar, then the base; units joined by * are phosphorothioate-linked, units joined directly phosphodiester-linked; [ ] holds rarer units or linkages, { } end groups; capitals alone tell only the bases. k = constrained ethyl (cEt); [5mC] = 5-methylcytosine; d = 2'-deoxy (DNA)
Rule: t for % inhibition of SMAD7 mRNA expression not less than 8%, f for anything less.

query: // inclusive: % inhibition of SMAD7 mRNA expression at least 8%? input: 799397 (antisense kA*kA*kA*dA*d[5mC]*dA*dG*dA*dG*d[5mC]*dT*dT*dG*kG*kT*kA) [compound 799397]
result: t

query: Tell me whether % inhibition of SMAD7 mRNA expression is at least 8% here: 798952 (antisense kT*kA*kT*dT*dT*d[5mC]*dT*d[5mC]*dA*dA*dA*dG*dA*kG*k[5mC]*kG) [compound 798952]
result: t

query: Is % inhibition of SMAD7 mRNA expression at least 8%? Consider 799478 (antisense k[5mC]*k[5mC]*k[5mC]*dT*dA*d[5mC]*d[5mC]*dA*d[5mC]*d[5mC]*d[5mC]*d[5mC]*dT*kG*kT*kG) [compound 799478]
result: t

query: Textbook exercise: given the entry 799108 (antisense k[5mC]*kT*kG*dA*dG*d[5mC]*dT*dG*dG*dT*dT*dT*dT*k[5mC]*kT*kA) [compound 799108] , state whether its % inhibition of SMAD7 mRNA expression is greater than or equal to 8%.
result: t

query: Textbook exercise: given the entry 798944 (antisense kA*kA*kA*d[5mC]*dG*dA*dG*dG*dA*d[5mC]*dG*dA*dG*kA*kA*kG) [compound 798944] , state whether its % inhibition of SMAD7 mRNA expression is greater than or equal to 8%.
result: f

query: Is reported % inhibition of SMAD7 mRNA expression greater than or equal to 8% here: 798749 (antisense kG*kG*kA*d[5mC]*dT*d[5mC]*d[5mC]*dA*d[5mC]*dG*dG*d[5mC]*d[5mC]*kT*kG*kG) [compound 798749]
result: t
